The measured values listed here are drawn from patent US11897862B2.

SYSTEM_NAME: IKZF1 (Homo sapiens, UniProt Q13422+Q96SW2)
Construct: expressed in transfected cells
Sequence (Q13422 whole entry): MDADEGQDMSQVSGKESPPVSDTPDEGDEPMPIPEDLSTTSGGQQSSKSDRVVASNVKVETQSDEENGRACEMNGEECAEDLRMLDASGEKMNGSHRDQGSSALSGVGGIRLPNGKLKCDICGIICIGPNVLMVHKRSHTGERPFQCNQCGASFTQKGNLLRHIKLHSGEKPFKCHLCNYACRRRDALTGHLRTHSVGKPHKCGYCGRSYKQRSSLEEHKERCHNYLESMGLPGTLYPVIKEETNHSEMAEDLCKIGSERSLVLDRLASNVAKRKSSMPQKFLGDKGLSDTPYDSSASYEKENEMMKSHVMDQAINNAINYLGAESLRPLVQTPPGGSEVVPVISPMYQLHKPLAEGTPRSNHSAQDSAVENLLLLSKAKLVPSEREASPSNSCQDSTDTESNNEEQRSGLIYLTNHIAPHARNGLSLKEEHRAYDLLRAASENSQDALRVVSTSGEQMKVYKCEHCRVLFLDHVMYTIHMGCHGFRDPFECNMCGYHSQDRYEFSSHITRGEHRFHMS
Sequence (Q96SW2 whole entry): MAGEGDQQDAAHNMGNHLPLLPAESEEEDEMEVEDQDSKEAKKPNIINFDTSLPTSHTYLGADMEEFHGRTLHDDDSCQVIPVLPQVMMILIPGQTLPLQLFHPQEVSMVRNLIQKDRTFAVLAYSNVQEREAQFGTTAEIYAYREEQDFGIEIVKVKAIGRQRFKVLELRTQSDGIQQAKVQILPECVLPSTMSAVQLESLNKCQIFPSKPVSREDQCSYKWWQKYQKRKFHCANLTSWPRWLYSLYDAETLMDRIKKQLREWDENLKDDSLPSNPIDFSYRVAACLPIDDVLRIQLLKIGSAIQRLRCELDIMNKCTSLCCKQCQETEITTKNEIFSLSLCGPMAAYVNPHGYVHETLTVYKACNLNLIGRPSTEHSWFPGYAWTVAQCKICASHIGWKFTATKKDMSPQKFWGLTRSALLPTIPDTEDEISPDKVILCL
Sequence (Q16531 whole entry partner): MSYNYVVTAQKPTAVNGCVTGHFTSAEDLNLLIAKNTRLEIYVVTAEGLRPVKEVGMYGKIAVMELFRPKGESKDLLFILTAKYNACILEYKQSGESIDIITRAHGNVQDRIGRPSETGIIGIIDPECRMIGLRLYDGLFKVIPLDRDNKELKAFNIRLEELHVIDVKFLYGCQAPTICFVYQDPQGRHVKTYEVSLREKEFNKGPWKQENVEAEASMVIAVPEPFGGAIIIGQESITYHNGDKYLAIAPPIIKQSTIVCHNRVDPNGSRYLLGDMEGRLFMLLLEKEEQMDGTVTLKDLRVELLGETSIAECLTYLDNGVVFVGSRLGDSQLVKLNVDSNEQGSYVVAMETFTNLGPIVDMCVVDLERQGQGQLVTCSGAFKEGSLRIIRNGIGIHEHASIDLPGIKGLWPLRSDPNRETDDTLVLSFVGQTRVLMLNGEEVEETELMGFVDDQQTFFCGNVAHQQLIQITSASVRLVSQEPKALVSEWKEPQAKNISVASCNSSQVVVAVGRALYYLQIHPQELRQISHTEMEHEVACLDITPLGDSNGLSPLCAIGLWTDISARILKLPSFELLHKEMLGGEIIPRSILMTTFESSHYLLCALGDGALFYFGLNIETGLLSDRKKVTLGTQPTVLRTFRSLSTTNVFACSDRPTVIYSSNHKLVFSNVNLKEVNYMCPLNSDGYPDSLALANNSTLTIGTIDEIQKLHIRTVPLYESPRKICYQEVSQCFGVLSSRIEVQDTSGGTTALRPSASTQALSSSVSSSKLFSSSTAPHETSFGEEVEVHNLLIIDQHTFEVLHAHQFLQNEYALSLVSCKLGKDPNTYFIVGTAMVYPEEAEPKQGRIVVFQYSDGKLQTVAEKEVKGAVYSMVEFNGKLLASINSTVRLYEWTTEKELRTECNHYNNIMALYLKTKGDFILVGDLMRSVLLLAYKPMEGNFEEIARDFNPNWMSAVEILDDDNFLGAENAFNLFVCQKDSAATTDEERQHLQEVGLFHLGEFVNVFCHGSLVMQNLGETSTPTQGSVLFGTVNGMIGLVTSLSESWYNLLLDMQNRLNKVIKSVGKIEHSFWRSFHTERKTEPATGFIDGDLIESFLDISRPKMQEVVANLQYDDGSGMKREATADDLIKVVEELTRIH
PROTOCOL_NOTES: HEK293 HiBiT in vitro degradation of IKZF1
Assay type: cell-based
REPORTED_CONDITIONS: HEK293, HEK293 HiBiT; maximum degradation at the highest concentration tested
Assign 1 whenever Dmax does not fall below 30%; assign -1 whenever it does.

> print(dat)
                                    molecule                               system.name  category
 1  C[C@]1(O)CC[C@H](NC2CCC(F)(F)CC2)[C@@H](Cc2ccc3c(c2)CN(C2CCC(=O)NC2=O)C3=O)C1 (stereo partly drawn)  IKZF1 (Homo sapiens, UniProt Q13422+Q96SW2)        -1
 2  O=C1CCC(N2Cc3cc(C[C@H]4CCCC[C@@H]4NCc4ccccc4)c(F)cc3C2=O)C(=O)N1 (stereo partly drawn)  IKZF1 (Homo sapiens, UniProt Q13422+Q96SW2)        -1
 3  CCC(C)N[C@H]1CCCC[C@@H]1Cc1ccc2c(c1F)CN(C1CCC(=O)NC1=O)C2=O (stereo partly drawn) [Example 307]  IKZF1 (Homo sapiens, UniProt Q13422+Q96SW2)         1
 4  CC(C)N[C@H]1CCCC[C@@H]1Cc1ccc2c(c1F)CN(C1CCC(=O)NC1=O)C2=O (stereo partly drawn)  IKZF1 (Homo sapiens, UniProt Q13422+Q96SW2)         1
 5  CC(C)(C)CCN[C@H]1CCCC[C@@H]1Cc1ccc2c(c1F)CN(C1CCC(=O)NC1=O)C2=O (stereo partly drawn)  IKZF1 (Homo sapiens, UniProt Q13422+Q96SW2)        -1
 6  CC(C)(CCN[C@H]1CCCC[C@@H]1Cc1ccc2c(c1)CN(C1CCC(=O)NC1=O)C2=O)C(F)(F)F (stereo partly drawn)  IKZF1 (Homo sapiens, UniProt Q13422+Q96SW2)         1
 7  CC(N[C@H]1CCCC[C@@H]1Cc1ccc2c(c1)CN(C1CCC(=O)NC1=O)C2=O)C1CCS(=O)(=O)CC1 (single isomer, unassigned)  IKZF1 (Homo sapiens, UniProt Q13422+Q96SW2)         1
 8  CC(N[C@H]1CCCC[C@@H]1Cc1ccc2c(c1)CN(C1CCC(=O)NC1=O)C2=O)C1CC(F)(F)C1 (single isomer, unassigned)  IKZF1 (Homo sapiens, UniProt Q13422+Q96SW2)         1
 9  O=C1CCC(N2Cc3c(ccc(C[C@H]4OCCC[C@@H]4NC4CC5(CCCCC5)C4)c3F)C2=O)C(=O)N1 (stereo partly drawn)  IKZF1 (Homo sapiens, UniProt Q13422+Q96SW2)         1
10  N#Cc1ccc(CN[C@H]2CCCC[C@@H]2Cc2ccc3c(c2)CN(C2CCC(=O)NC2=O)C3=O)cc1 (stereo partly drawn)  IKZF1 (Homo sapiens, UniProt Q13422+Q96SW2)         1
11  [2H]C1(N[C@H]2CCCC[C@@H]2Cc2ccc3c(c2F)CN(C2CCC(=O)NC2=O)C3=O)CCC2(CC2)CC1 (stereo partly drawn)  IKZF1 (Homo sapiens, UniProt Q13422+Q96SW2)         1
12  CC(C)N[C@H]1CC(F)(F)CC[C@@H]1Cc1ccc2c(c1)CN(C1CCC(=O)NC1=O)C2=O (stereo partly drawn)  IKZF1 (Homo sapiens, UniProt Q13422+Q96SW2)         1
13  O=C1CCC(N2Cc3cc(C[C@H]4CCC[C@H](O)[C@@H]4NC4CCC(F)(F)CC4)ccc3C2=O)C(=O)N1 (stereo partly drawn)  IKZF1 (Homo sapiens, UniProt Q13422+Q96SW2)         1
14  O=C1CCC(N2Cc3cc(C[C@H]4CCCC[C@@H]4NC4CCc5ccccc54)ccc3C2=O)C(=O)N1 (stereo partly drawn)  IKZF1 (Homo sapiens, UniProt Q13422+Q96SW2)         1
15  O=C1CCC(N2Cc3cc(C[C@H]4CCCC[C@@H]4NC4CC5(C4)CC(F)(F)C5)ccc3C2=O)C(=O)N1 (stereo partly drawn)  IKZF1 (Homo sapiens, UniProt Q13422+Q96SW2)         1
